Numbers sourced from patent US12281122B1.

Tested on: T47D (PI3Kα-H1047R) cell line
procedure.details: HTRF phospho-AKT(S473) cell assay in T47D cells
Format: cell-based, human
condition.description: Homo sapiens; HTRF phospho-AKT(S473), T47D (PI3Kα-H1047R) cells, 2 hours compound incubation
pIC50: −log10 of the molar value.
// values below are reported pIC50
reported.endpoint: pIC50

>  <compound>
Cc1cc([C@@H](C)Nc2ccc(Cl)nc2C(=O)NS(C)(=O)=O)c2nc(N3C[C@H]4C[C@@H]3CN4c3cnc(C)c(F)c3)n(C)c(=O)c2c1

>  <test.value>
6.00 to 6.30

$$$$
>  <compound>
Cc1cc([C@@H](C)Nc2ccc(Cl)nc2C(=O)NS(C)(=O)=O)c2nc(N3C[C@@H]4[C@H](C3)[C@H]4c3cc4ncccn4n3)n(C)c(=O)c2c1

>  <test.value>
> 6.60

$$$$
>  <compound>
Cc1cc([C@@H](C)Nc2ccc(Cl)nc2C(=O)NS(C)(=O)=O)c2nc(N3CCC[C@@H](c4ncc(Cl)cn4)C3)n(C)c(=O)c2c1 (relative stereo)

>  <test.value>
5.30 to 6.00

$$$$
>  <compound>
Cc1cc([C@@H](C)Nc2ccc(Cl)nc2C(=O)NS(C)(=O)=O)c2nc(N3CCC(c4cnc(C)o4)CC3)n(C)c(=O)c2c1

>  <test.value>
> 6.60

$$$$
>  <compound>
Cc1cc([C@@H](C)Nc2ccc(Cl)nc2C(=O)NS(C)(=O)=O)c2nc(N3C[C@@H]4[C@H](C3)[C@H]4c3cc(C)ncc3F)n(C)c(=O)c2c1

>  <test.value>
6.30 to 6.60

$$$$

----------
Tested on: T47D (PI3Kα-H1047R) cell line
procedure.details: HTRF phospho-AKT(S473) cell assay in T47D cells
Type: cell-based, human
condition.description: Homo sapiens; HTRF phospho-AKT(S473), T47D (PI3Kα-H1047R) cells, 2 hours compound incubation
pIC50: −log10 of the molar value.
The following molecules are shown together with reported pIC50 values.

>  <molecule>
COc1ccccc1-n1cc2c(n1)CN(c1nc3c([C@@H](C)Nc4ccc(Cl)nc4C(=O)NS(C)(=O)=O)cc(C)cc3c(=O)n1C)C2 [Compound 705]

>  <pIC50>
6.30 to 6.60

$$$$
>  <molecule>
Cc1cc([C@@H](C)Nc2ccc(Cl)nc2C(=O)NS(C)(=O)=O)c2nc(N3CCN4C[C@H](n5cc(C)cn5)C[C@H]4C3)n(C)c(=O)c2c1 [Compound 680]

>  <pIC50>
6.30 to 6.60

$$$$
>  <molecule>
Cc1cc([C@@H](C)Nc2ccc(Cl)nc2C(=O)NS(C)(=O)=O)c2nc(N3C[C@@H]4[C@H](C3)[C@H]4c3nc(C)nn3C(F)F)n(C)c(=O)c2c1 [Compound 643]

>  <pIC50>
6.30 to 6.60

$$$$
>  <molecule>
Cc1cc([C@@H](C)Nc2ccc(Cl)nc2C(=O)NS(C)(=O)=O)c2nc(N3CC[C@@H](Oc4cnc(C)cn4)C3)n(C)c(=O)c2c1 [Compound 672]

>  <pIC50>
> 6.60

$$$$
>  <molecule>
Cc1cc([C@@H](C)Nc2ccc(Cl)nc2C(=O)NS(C)(=O)=O)c2nc(N3CCC(c4cc5n(n4)CCO5)CC3)n(C)c(=O)c2c1 [Compound 556]

>  <pIC50>
> 6.60

$$$$
>  <molecule>
COc1nccc(N2C[C@@H]3C[C@H]2CN3c2nc3c([C@@H](C)Nc4ccc(Cl)nc4C(=O)NS(C)(=O)=O)cc(C)cc3c(=O)n2C)n1 [Compound 581]

>  <pIC50>
6.30 to 6.60

$$$$
